Reported pIC50 values are given for each entry in this list.
Protein target, amino acids: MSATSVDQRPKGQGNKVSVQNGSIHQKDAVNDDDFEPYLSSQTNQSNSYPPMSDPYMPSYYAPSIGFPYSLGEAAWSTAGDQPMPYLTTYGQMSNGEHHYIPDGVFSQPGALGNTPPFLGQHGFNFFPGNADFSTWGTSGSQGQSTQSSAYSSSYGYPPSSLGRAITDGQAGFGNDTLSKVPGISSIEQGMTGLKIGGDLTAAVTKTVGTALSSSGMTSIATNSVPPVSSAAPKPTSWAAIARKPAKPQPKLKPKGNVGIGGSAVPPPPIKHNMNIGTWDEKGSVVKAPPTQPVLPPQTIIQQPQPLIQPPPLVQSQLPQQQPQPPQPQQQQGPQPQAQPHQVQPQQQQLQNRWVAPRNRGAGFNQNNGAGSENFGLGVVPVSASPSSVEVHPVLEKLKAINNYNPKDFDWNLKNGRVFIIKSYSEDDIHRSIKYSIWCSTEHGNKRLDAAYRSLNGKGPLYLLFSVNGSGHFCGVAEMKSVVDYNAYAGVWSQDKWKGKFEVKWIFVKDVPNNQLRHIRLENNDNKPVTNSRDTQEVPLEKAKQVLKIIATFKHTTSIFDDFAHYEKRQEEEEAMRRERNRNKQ
pIC50: −log10 of the molar value.
recorded_metric: pIC50

{"columns": ["smiles_repr", "numeric_value"],
 "data": [
  ["O=C(O)c1ccc(-c2csc3[nH]c(=S)[nH]c(=O)c23)cc1", 4.28],
  ["Cc1c(-c2ccc(N)cc2)sc2[nH]c(=S)[nH]c(=O)c12", 4.30]
]}

----------
The molecules listed here are annotated with their Single-dose residual signal at 100 µM, DF3.
Biological target: GST-YTHDF3 (Homo sapiens)
Construct: made in house
Sequence (Q7Z739 1-585): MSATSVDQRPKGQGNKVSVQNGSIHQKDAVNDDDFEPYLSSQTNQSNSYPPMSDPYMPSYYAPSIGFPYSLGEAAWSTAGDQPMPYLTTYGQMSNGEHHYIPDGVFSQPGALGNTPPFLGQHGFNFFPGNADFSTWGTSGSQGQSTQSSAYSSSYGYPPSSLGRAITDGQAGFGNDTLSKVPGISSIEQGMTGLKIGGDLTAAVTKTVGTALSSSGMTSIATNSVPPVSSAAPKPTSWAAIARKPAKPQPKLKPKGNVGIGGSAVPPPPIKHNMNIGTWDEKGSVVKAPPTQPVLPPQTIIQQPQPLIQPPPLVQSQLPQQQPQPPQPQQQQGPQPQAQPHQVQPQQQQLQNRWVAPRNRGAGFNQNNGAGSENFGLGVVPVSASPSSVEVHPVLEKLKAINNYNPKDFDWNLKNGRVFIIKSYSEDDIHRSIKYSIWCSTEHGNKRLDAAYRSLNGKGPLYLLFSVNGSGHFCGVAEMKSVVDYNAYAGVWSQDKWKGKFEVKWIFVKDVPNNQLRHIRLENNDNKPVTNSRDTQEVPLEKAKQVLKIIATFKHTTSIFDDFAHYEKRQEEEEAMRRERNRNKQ
Experiment: HTRF-based binding assay, DF3
Settings: HTRF, 100 µM compound, normalized
recorded_metric: Single-dose residual signal at 100 µM, DF3 (%)

{"columns": ["molecule", "numeric_value"],
 "data": [
  ["Cc1c(C(C)O)sc2[nH]c(=S)[nH]c(=O)c12 (racemic) [Compound S79]", 30],
  ["O=C(O)c1csc2[nH]c(=S)[nH]c(=O)c12 [Compound S90]", 34],
  ["CC(=O)c1sc2[nH]c(=S)[nH]c(=O)c2c1C [Compound 20]", 12],
  ["COC(=O)c1ccc(-c2csc3[nH]c(=S)[nH]c(=O)c23)cc1 [Compound 17]", 7],
  ["O=C(O)c1ccc(-c2csc3[nH]c(=S)[nH]c(=O)c23)cc1 [Compound 18]", 19],
  ["CCOC(=O)c1csc2[nH]c(=S)[nH]c(=O)c12 [Compound S89]", 16],
  ["Cc1c(C(=O)O)sc2[nH]c(=S)[nH]c(=O)c12 [Compound S80]", 29],
  ["Cc1c(C(=O)NCc2cccc(C(=O)O)c2)sc2[nH]c(=S)[nH]c(=O)c12 [Compound 24]", 12],
  ["Cc1c(C(=O)NCCCCO)sc2[nH]c(=S)[nH]c(=O)c12 [Compound S83]", 40]
]}

----------
Listing of recorded % at 100 µM by entry.
Target: GST-YTHDF2 (Homo sapiens)
Construct: made in house
Sequence (Q9Y5A9 1-579): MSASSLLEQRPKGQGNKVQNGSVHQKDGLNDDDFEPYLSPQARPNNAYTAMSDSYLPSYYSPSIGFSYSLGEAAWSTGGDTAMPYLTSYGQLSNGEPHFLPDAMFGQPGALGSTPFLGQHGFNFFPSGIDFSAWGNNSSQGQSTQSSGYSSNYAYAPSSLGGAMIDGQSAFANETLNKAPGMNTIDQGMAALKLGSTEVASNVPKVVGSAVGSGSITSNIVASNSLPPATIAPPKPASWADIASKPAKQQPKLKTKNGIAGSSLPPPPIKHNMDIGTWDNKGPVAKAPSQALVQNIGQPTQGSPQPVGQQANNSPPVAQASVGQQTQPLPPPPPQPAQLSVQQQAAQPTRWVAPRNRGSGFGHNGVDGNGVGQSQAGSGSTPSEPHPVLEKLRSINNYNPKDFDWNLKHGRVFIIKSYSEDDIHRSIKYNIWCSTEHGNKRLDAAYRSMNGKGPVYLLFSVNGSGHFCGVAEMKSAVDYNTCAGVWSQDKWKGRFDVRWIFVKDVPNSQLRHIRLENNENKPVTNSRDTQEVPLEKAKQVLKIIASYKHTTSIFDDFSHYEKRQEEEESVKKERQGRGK
Assay: HTRF-based binding assay, competition with m6A-oligoRNA, DF2
Conditions: HTRF, 100 µM compound

{"columns": ["smiles_repr", "% at 100 µM [%]"],
 "data": [
  ["Nn1c(=S)[nH]c2sccc2c1=O", 40],
  ["Cc1cc2c(=O)n(C3CC3)c(=S)[nH]c2s1", 25],
  ["CCc1cc2c(=O)[nH]c(SC)nc2s1", 68]
]}

----------
Target: UniProtKB Q9Y5A9
Assay: DNA-fluorescence polarization (FP) competition assay, DF2
Format: binding
Conditions: Cheng-Prusoff from FP IC50, probe Kd 5 nM; two biological replicates
Each entry below lists one item and its recorded Kd value.

{"columns": ["smiles_repr", "Kd, µM"],
 "data": [
  ["COc1ccc(-c2csc3[nH]c(=S)[nH]c(=O)c23)cc1", 11],
  ["Cc1csc2[nH]c(=S)[nH]c(=O)c12", 8.1],
  ["CCOC(=O)c1csc2[nH]c(=S)[nH]c(=O)c12", 7.5],
  ["O=c1[nH]c(=S)[nH]c2scc(C3CCCCC3)c12", 5.6],
  ["O=c1[nH]c(=S)[nH]c2sc(Cc3ccccc3)cc12", 6.2],
  ["O=c1[nH]c(=S)[nH]c2scc(-c3ccc(Br)cc3)c12", 8.8],
  ["O=C(O)c1csc2[nH]c(=S)[nH]c(=O)c12", 10],
  ["O=C(O)c1ccc(Cc2cc3c(=O)[nH]c(=S)[nH]c3s2)cc1", 18]
]}

----------
Molecular target: GST-YTHDF2 (Homo sapiens, UniProt Q9Y5A9)
Construct: made in house
Test: HTRF-based binding assay, competition with m6A-oligoRNA, DF2
Settings: HTRF DF2
recorded_metric: Improvement of HTRF IC50 compared to fragment 14 (fold)

{"columns": ["smiles_repr", "measurement_units", "numeric_value"],
 "data": [
  ["O=C(O)c1ccc(-c2csc3[nH]c(=S)[nH]c(=O)c23)cc1", "fold", 3],
  ["COC(=O)c1ccc(-c2csc3[nH]c(=S)[nH]c(=O)c23)cc1", "fold", 3]
]}

----------
Reported Single-dose residual signal at 100 µM, DF1 values for the following compounds.
Target: GST-YTHDF1 (Homo sapiens)
Construct: made in house
Sequence (Q9BYJ9 whole entry): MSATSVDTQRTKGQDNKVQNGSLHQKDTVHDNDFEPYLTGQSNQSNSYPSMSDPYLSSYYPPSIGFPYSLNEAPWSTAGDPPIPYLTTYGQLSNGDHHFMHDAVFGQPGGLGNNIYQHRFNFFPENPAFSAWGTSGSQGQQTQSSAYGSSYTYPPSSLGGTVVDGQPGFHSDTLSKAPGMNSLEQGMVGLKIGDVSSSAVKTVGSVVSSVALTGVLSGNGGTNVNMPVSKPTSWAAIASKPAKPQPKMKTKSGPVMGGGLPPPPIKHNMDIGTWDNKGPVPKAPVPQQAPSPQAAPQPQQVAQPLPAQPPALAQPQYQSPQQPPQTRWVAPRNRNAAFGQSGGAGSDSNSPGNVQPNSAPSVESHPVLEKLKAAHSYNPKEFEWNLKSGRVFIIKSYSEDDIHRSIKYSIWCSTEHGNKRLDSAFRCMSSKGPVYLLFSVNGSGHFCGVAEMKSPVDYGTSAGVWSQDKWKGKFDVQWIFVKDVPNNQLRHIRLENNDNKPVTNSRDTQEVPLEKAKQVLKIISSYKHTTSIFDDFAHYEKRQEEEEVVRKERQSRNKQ
Test: HTRF-based binding assay, DF1
Settings: HTRF, 100 µM compound, normalized
recorded_metric: Single-dose residual signal at 100 µM, DF1

{"columns": ["compound", "result"],
 "data": [
  ["Cc1cc2c(=O)[nH]c(=S)[nH]c2s1 [Compound S78]", "17%"],
  ["CC(=O)c1sc2[nH]c(=S)[nH]c(=O)c2c1C [Compound 20]", "8%"],
  ["O=c1[nH]c(=S)[nH]c2scc(-c3ccc(O)cc3)c12 [Compound 19]", "8%"],
  ["COc1ccc(-c2csc3[nH]c(=S)[nH]c(=O)c23)cc1 [Compound S76]", "12%"],
  ["O=c1[nH]c(=S)[nH]c2sc(Cc3ccccc3)cc12 [Compound S85]", "34%"],
  ["O=c1[nH]c(=S)[nH]c2sccc12 [Compound 14]", "15%"],
  ["Cc1c(C(=O)NCc2ccccc2)sc2[nH]c(=S)[nH]c(=O)c12 [Compound 22]", "17%"],
  ["CCOC(=O)c1sc2[nH]c(=S)[nH]c(=O)c2c1C [Compound 21]", "12%"],
  ["Cc1c(-c2ccc(N)cc2)sc2[nH]c(=S)[nH]c(=O)c12 [Compound 27]", "6%"],
  ["COC(=O)c1ccc(-c2csc3[nH]c(=S)[nH]c(=O)c23)cc1 [Compound 17]", "7%"],
  ["O=C(O)c1csc2[nH]c(=S)[nH]c(=O)c12 [Compound S90]", "36%"],
  ["O=c1[nH]c(=S)[nH]c2scc(-c3ccc(Br)cc3)c12 [Compound S75]", "9%"],
  ["Cc1c(-c2ccc([N+](=O)[O-])cc2)sc2[nH]c(=S)[nH]c(=O)c12 [Compound 26]", "12%"],
  ["O=C(O)c1ccc(-c2csc3[nH]c(=S)[nH]c(=O)c23)cc1 [Compound 18]", "3%"],
  ["Cc1c(C(=O)NCCCCO)sc2[nH]c(=S)[nH]c(=O)c12 [Compound S83]", "17%"],
  ["O=c1[nH]c(=S)[nH]c2scc(C3CCCCC3)c12 [Compound S77]", "32%"],
  ["Cc1c(C(=O)O)sc2[nH]c(=S)[nH]c(=O)c12 [Compound S80]", "15%"],
  ["Cc1c(C(=O)NCCCC(=O)O)sc2[nH]c(=S)[nH]c(=O)c12 [Compound 25]", "6%"]
]}
